biological target: amylin receptor (nucleus accumbens membranes prepared from rat brain) (rat, UniProt P32214 25-516); test: radioligand displacement, 125I-rat amylin, rat nucleus accumbens membranes
Sequence (P32214 25-516): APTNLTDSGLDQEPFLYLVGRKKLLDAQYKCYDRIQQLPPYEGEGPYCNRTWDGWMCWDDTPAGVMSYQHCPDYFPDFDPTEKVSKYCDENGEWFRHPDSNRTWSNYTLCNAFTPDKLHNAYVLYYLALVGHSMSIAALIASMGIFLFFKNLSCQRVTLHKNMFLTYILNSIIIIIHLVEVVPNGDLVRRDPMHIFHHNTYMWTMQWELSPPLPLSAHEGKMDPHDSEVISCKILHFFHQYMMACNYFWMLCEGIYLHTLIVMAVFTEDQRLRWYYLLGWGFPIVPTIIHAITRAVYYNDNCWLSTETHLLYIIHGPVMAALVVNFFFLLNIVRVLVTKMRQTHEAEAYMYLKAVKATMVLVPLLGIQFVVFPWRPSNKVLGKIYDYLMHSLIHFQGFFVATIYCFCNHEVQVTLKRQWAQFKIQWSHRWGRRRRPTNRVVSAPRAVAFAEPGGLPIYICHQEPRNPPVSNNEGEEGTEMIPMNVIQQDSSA
Ends that are not written are not given here.
Record form. Attribute: IC50. Fill in for each entry.
Report as a plain number; the unit nM is understood.

Q. Would you kindly share the measured IC50 for CVLGTCQVQNLSHRLWQLRQESAPVEPSSPHSY-NH2 (ends and bridges not checked) [AFP-6 analog SEQ ID NO: 19] ?
A. 29

Q. Next binder up: TQAQLLRVGCVLGTCQVQNLSHRLWQLDSAPVDPSSPHSY-NH2 (ends and bridges not checked) [AFP-6 analog SEQ ID NO: 17]
A. 209

Q. Entry to check: TQAQLLRVGCSNLSTCQVQNLSHRLWQLMGPAGRQDSAPVDPSSPHSY-NH2 (ends and bridges not checked) [AFP-6 analog SEQ ID NO: 20]
A. 1.9
